This section presents variants with their documented one-hybrid fitness for binding NBS DNA values.
B1: Caulobacter ParB omega fusion; a variant is named by its letters at X, in order, B8GW30 (parent)
chain: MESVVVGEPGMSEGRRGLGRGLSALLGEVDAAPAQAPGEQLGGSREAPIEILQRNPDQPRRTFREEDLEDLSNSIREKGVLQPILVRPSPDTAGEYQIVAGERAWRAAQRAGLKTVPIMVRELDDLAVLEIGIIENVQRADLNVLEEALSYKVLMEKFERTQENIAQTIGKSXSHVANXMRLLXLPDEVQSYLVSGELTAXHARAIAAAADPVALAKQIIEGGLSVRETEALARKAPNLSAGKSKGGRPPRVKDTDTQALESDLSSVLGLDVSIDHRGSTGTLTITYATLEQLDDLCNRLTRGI

- Variants of: B1
- experimentalDetails: one-hybrid fitness for binding NBS DNA (the Noc-binding site; scaled: cognate 1, non-cognate 0); higher = stronger binding
- cond: with NBS DNA site
Whole data set: some 81,000 sequences, median “one-hybrid fitness for binding NBS DNA” near -0.1, cut for the highest 2% near 0.36. The sample holds the highest values, similar sequences and a random draw of the others, so the mix is not that of the screen.

Observe how each entry below is paired with its result.
{"variantDescription": "DFTV", "one-hybrid fitness for binding NBS DNA": "≤ 0.2"}
{"variantDescription": "RSKC", "one-hybrid fitness for binding NBS DNA": 0.382}
{"variantDescription": "RMLT", "one-hybrid fitness for binding NBS DNA": 0.347}
{"variantDescription": "LQVS", "one-hybrid fitness for binding NBS DNA": "≤ 0.2"}
{"variantDescription": "QCYT", "one-hybrid fitness for binding NBS DNA": 0.503}

For this variant ( QNRT ), measured one-hybrid fitness for binding NBS DNA is 0.292

For this variant ( GLHC ), measured one-hybrid fitness for binding NBS DNA is ≤ 0.2
